Target: human recombinant MAGL (Homo sapiens (Human), UniProt Q99685)
Sequence (Q99685 whole entry): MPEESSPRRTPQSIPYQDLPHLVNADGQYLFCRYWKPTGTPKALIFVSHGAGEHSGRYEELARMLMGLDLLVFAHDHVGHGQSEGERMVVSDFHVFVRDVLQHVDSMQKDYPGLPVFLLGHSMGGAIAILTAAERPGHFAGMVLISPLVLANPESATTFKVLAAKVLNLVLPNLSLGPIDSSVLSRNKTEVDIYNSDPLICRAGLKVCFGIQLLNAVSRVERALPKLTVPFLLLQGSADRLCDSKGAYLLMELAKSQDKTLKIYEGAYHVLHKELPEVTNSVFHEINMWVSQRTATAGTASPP
Assay: In vitro inhibition of human recombinant MAGL activity (Cayman inhibitor screening kit, 4-nitrophenylacetate hydrolysis)
Format: biochemical
Conditions: human recombinant MAGL; read-out: Inhibition on MAGL activity (IC50)
pIC50: −log10 of the molar value.
OUTCOME MEASURE: pIC50

### Prompt Tell me pIC50 reported for O=C(N1CCN(C(c2ccc3c(c2)COCO3)c2ccc3c(c2)COCO3)CC1)n1nnc2cc(C(F)(F)F)ccc21
### Response 7.00 to 8.00

### Prompt Tell me pIC50 reported for Cn1ncc2cc(C(c3ccc4c(cnn4C)c3)N3CCN(C(=O)n4nnc5ccccc54)CC3)ccc21
### Response 7.00 to 8.00

### Prompt Tell me pIC50 reported for N#Cc1ccc2c(c1)nnn2C(=O)N1CCC(N(c2ccc(C(F)(F)F)cc2)c2ccc3c(c2)OCO3)CC1
### Response 8.00 to 9.00

### Prompt Tell me pIC50 reported for N#Cc1ncn(C(=O)N2CCC(=C(c3ccc4c(c3)COCO4)c3ccc4c(c3)COCO4)CC2)n1
### Response 8.00 to 9.00

### Prompt Tell me pIC50 reported for N#Cc1ccc2nnn(C(=O)N3CCC(N(c4cccnc4)c4ccc5c(c4)OCO5)CC3)c2c1
### Response 8.00 to 9.00

### Prompt Tell me pIC50 reported for COc1ccc(C(c2ccc(OC)c(OC)c2)N2CCN(C(=O)n3nnc4cc(C#N)ccc43)CC2)cc1OC
### Response 7.00 to 8.00

### Prompt Tell me pIC50 reported for N#Cc1ccc2c(c1)nnn2C(=O)N1CCC(N(c2ccc(F)cc2)c2ccc3c(c2)OCO3)CC1
### Response 8.00 to 9.00

### Prompt Tell me pIC50 reported for O=C(ON1C(=O)CCC1=O)N1CCN(C(c2ccc3c(c2)COCO3)c2ccc3c(c2)COCO3)CC1
### Response < 7.00

### Prompt Tell me pIC50 reported for O=C(N1CCN(C(c2ccc3c(c2)COCO3)c2ccc3c(c2)COCO3)CC1)n1nnc2ccc(F)cc21
### Response 8.00 to 9.00

### Prompt Tell me pIC50 reported for NC(=O)c1cccc(-c2cccc(OC(=O)NC3CCCCC3)c2)c1 [URB597, reference compound]
### Response < 4.30

### Prompt Tell me pIC50 reported for O=C(N1CCN(C(c2ccc3c(c2)COCO3)c2ccc3c(c2)COCO3)CC1)n1nc2ccccn2c1=O
### Response < 7.00

### Prompt Tell me pIC50 reported for COc1ccc(N(c2ccc(F)cc2)C2CCN(C(=O)n3nnc4cc(C#N)ccc43)CC2)cc1
### Response 8.00 to 9.00

### Prompt Tell me pIC50 reported for COc1ccc(C(c2ccc(OC)cc2)N2CCN(C(=O)n3nnc4cc(C#N)ccc43)CC2)cc1
### Response 7.00 to 8.00

### Prompt Tell me pIC50 reported for N#Cc1cnn(C(=O)N2CCN(C(c3ccc4c(c3)COCO4)c3ccc4c(c3)COCO4)CC2)c1
### Response 8.00 to 9.00

### Prompt Tell me pIC50 reported for O=C(Nc1cnccc1Cl)N1CCN(Cc2ccc3c(c2)OC(F)(F)O3)CC1 [JNJ-42165279, reference compound]
### Response < 4.30

### Prompt Tell me pIC50 reported for COc1ccc(C(c2cccnc2)N2CCN(C(=O)n3cnc(C#N)n3)CC2)cc1 (stereo not drawn)
### Response 8.00 to 9.00

### Prompt Tell me pIC50 reported for Cn1ncc2cc(C(=C3CCN(C(=O)n4cnc(C#N)n4)CC3)c3ccc4c(cnn4C)c3)ccc21
### Response 8.00 to 9.00

### Prompt Tell me pIC50 reported for COc1cccc(C(c2cccc(OC)c2)N2CCN(C(=O)n3nnc4cc(C#N)ccc43)CC2)c1
### Response 8.00 to 9.00

### Prompt Tell me pIC50 reported for O=C(On1nnc2ccc(C(F)(F)F)cc21)N1CCN(C(c2ccc3c(c2)COCO3)c2ccc3c(c2)COCO3)CC1
### Response < 7.00

### Prompt Tell me pIC50 reported for O=C(N1CCN(C(c2ccc3c(c2)COCO3)c2ccc3c(c2)COCO3)CC1)n1cccn1
### Response < 7.00

### Prompt Tell me pIC50 reported for N#Cc1ccc(C(c2ccc(C#N)cc2)N2CCN(C(=O)n3cnc(C#N)n3)CC2)cc1
### Response 8.00 to 9.00

### Prompt Tell me pIC50 reported for O=C(Oc1c(F)c(F)c(F)c(F)c1F)N1CCN(C(c2ccc3c(c2)COCO3)c2ccc3c(c2)COCO3)CC1
### Response < 7.00

### Prompt Tell me pIC50 reported for N#Cc1ncn(C(=O)N2CCN(C(c3ccc4occc4c3)c3ccc4occc4c3)CC2)n1
### Response 8.00 to 9.00

### Prompt Tell me pIC50 reported for COc1ccc(N(c2ccc3c(c2)OCO3)C2CCN(C(=O)n3nnc4ccc(C#N)cc43)CC2)cc1
### Response 8.00 to 9.00

### Prompt Tell me pIC50 reported for O=C(N1CCCCC1)N1CCN(C(c2ccc3c(c2)COCO3)c2ccc3c(c2)COCO3)CC1
### Response < 7.00

### Prompt Tell me pIC50 reported for N#Cc1ncn(C(=O)N2CCC3(CCN(C(c4ccc5c(c4)COCO5)c4ccc5c(c4)COCO5)C3)C2)n1 (stereo not drawn)
### Response 7.00 to 8.00

### Prompt Tell me pIC50 reported for O=C(N1CCN(C(c2ccc3c(c2)COCO3)c2ccc3c(c2)COCO3)CC1)n1cc(-c2ccccc2)nn1
### Response 7.00 to 8.00

### Prompt Tell me pIC50 reported for O=C(N1CCN(C(c2ccc3c(c2)COCO3)c2ccc3c(c2)COCO3)CC1)n1nnc2ccc(Br)cc21
### Response 8.00 to 9.00

### Prompt Tell me pIC50 reported for COc1ccc(C(c2ccc(F)cc2)N2CCN(C(=O)n3nnc4cc(C#N)ccc43)CC2)cc1 (stereo not drawn)
### Response 8.00 to 9.00

### Prompt Tell me pIC50 reported for N#Cc1ccc2nnn(C(=O)N3CCC(N(c4ccc(F)cc4)c4ccc(F)cc4)CC3)c2c1
### Response 8.00 to 9.00
